Biological target: c-Met (cytoplasmic domain) (Homo sapiens)
Construct: 10 ng/mL c-Met (cytoplasmic domain, Invitrogen Corporation #PV3143); purchased Invitrogen Corporation PV3143
Sequence (P08581 956-1390 limits assumed): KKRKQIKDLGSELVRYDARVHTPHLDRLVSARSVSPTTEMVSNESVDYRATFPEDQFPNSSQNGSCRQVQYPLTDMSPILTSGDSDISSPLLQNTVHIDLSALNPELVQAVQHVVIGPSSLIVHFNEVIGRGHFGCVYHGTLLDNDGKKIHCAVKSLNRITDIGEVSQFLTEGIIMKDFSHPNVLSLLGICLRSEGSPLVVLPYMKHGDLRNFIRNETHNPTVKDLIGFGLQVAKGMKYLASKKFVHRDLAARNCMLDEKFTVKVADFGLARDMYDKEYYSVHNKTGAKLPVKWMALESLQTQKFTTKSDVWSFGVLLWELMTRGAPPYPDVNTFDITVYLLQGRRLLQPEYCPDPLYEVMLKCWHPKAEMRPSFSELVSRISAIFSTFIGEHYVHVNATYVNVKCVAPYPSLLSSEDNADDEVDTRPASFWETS
Assay: c-Met Kinase Assay (same methods as for ALK, with modifications)
Assay type: biochemical
Details: 1 μM ATP (Km level), 10 ng/mL c-Met; read-out: cMet Activity (c-Met kinase inhibition, IC50 class)
Description: Briefly, each 96-well plate was coated with 100 μL/well of 10 μg/mL substrate (phospholipase C-γ) in Tris-buffered saline (TBS). […] The reaction was initiated by adding enzyme (30 ng/ml ALK) and was allowed to proceed at 37° C. for 15 minutes. Detection of the phosphorylated product was performed by adding 100 μl/well of Eu-N1 labeled PT66 antibody (Perkin Elmer # AD0041). Data analysis was performed using ActivityBase (IDBS, Guilford, UK). […]
Examples of molecules with documented IC50 follow.

molecule	IC50
CCOC(=O)N1CCCOc2ccc(Nc3ncc(Cl)c(Nc4ccsc4C(=O)NC)n3)cc21 [Example 1411]	1000 to 10000 nM
COCCN1CCc2ccc(Nc3ncc(Cl)c(Nc4ccccc4C(=O)NCCN(C)C)n3)cc2CC1 [Example 1397]	100 to 1000 nM
CNC(=O)c1cc(Br)cc(F)c1Nc1nc(Nc2ccc3c(c2)NC(=O)CCC3)ncc1Cl [Example 1414]	< 100 nM
CCN1C(=O)C(N(C)C)CCc2c1ccc(Nc1ncc(Cl)c(Nc3ccccc3S(=O)(=O)N(C)C)n1)c2OC (centres unmarked) [Example 1348]	> 10000 nM
CCNC(=O)c1cccc(F)c1Nc1nc(Nc2ccc3c(c2)CNC(=O)CCN3C(C)=O)ncc1Cl [Example 1228]	< 100 nM
COc1cc2c(cc1Nc1ncc(Cl)c(N[C@H]3[C@@H](C(N)=O)[C@@H]4C=C[C@H]3C4)n1)CCC(NCCO)CC2 (single isomer, unassigned) [Example 1097]	> 10000 nM
O=C1CCCc2ccc(Nc3ncc(Cl)c(Nc4c(F)cc(F)cc4N4CCOCC4)n3)cc2N1 [Example 1286]	1000 to 10000 nM
COc1cc2c(cc1Nc1ncc(Cl)c(Nc3ccccc3S(=O)(=O)N(C)C)n1)CCN(CCN1CCOCC1)C(=O)C2 [Example 1195]	1000 to 10000 nM
COCCNC(=O)c1ccccc1Nc1nc(Nc2ccc3c(c2)CCN(CCOC)CC3)ncc1Cl [Example 1398]	1000 to 10000 nM
CN(CCC#N)c1cccc(F)c1Nc1nc(Nc2ccc3c(c2)C(C)(C)CCC(=O)N3)ncc1Cl [Example 1267]	1000 to 10000 nM
COc1cc2c(cc1Nc1ncc(Cl)c(Nc3ccc[nH]c3=O)n1)CCN(CC(=O)N(C)C)CC2 [Example 1186]	> 10000 nM
